# melting point values compiled below

Solved entries:
{"input smiles": "O=C(CCl)NCc1cn(Cc2ccccc2)nc1-c1ccccc1", "melting point": "82 to 84 °C"}
{"input smiles": "Nc1cccc(Oc2ccncc2)c1", "melting point": "107 to 109 °C"}

Q: Please report melting point for the following compound: Cn1cc(N2C(=O)C=CC2=O)cn1
Ans: 151 to 153 °C

Q: Please report melting point for the following compound: CCOC(=O)c1cncnc1O
Ans: 179 to 181 °C

Q: Please report melting point for the following compound: O=C(Nc1ccc2[nH]ccc2c1)c1ccc(F)cc1Br
Ans: 185 to 187 °C

Q: Please report melting point for the following compound: Cc1nn(CCCl)c(C)c1C=O
Ans: 49 to 51 °C

Q: Please report melting point for the following compound: CC(=O)c1ccc(S(=O)(=O)N(C)C)cc1
Ans: 99 to 101 °C

====

# melting point values compiled below

Solved entries:
{"compound": "N#Cc1cccc(CNc2ccc3[nH]c(=O)[nH]c3c2)c1", "melting point": "261 to 263 °C"}
{"compound": "CCN1CCNC1=O", "melting point": "75 to 77 °C"}
{"compound": "CC1(C)CC(=O)c2sc(N)nc2C1", "melting point": "212 to 214 °C"}

Q: Please report melting point for the following compound: CC1Cc2ccccc2N1S(=O)(=O)c1cccc(C(=O)O)c1 (configuration not stated)
Ans: 170 to 172 °C

====

# melting point values compiled below

{"compound": "Cc1nc(S)c(C(N)=O)c(C)c1C", "melting point": "294 to 296 °C"}
{"compound": "O=[N+]([O-])c1cccc(F)c1S(=O)(=O)Cl", "melting point": "89 to 91 °C"}
{"compound": "CCC(=O)N(c1nnc(S)s1)C1CC1", "melting point": "195 to 197 °C"}
{"compound": "CS(=O)(=O)Nc1nc2ccc(N)cc2s1", "melting point": "281 to 283 °C"}
{"compound": "CC1(C)NC(=O)N(CCCC(=O)O)C1=O", "melting point": "97 to 99 °C"}
{"compound": "COc1cc(NS(=O)(=O)c2ccc(N)cc2OC)cc(OC)c1", "melting point": "177 to 179 °C"}

Q: Please report melting point for the following compound: N#Cc1ccnc(Cl)c1[N+](=O)[O-]
Ans: 74 to 76 °C

Q: Please report melting point for the following compound: COc1ccc(OCc2ccccn2)c(/C=C/C(=O)O)c1
Ans: 177 to 179 °C

Q: Please report melting point for the following compound: Cc1cc(C(=O)N2CCCC(C)C2)ccc1N (stereo not drawn)
Ans: 128 to 130 °C

Q: Please report melting point for the following compound: O=C(Nc1cnccn1)C1CCNCC1
Ans: 131 to 133 °C

Q: Please report melting point for the following compound: Cc1ccc(CN2C(=O)CCC2C(=O)O)cc1 (stereo not drawn)
Ans: 128 to 130 °C

Q: Please report melting point for the following compound: NNC(=O)Nc1ccc(Br)cc1Cl
Ans: 163 to 165 °C

Q: Please report melting point for the following compound: Cc1ccc(-c2nn(Cc3ccccc3)cc2C=O)cc1C
Ans: 79 to 81 °C

Q: Please report melting point for the following compound: O=C(O)C1CCCN1C(=O)c1ccco1 (stereo not drawn)
Ans: 185 to 187 °C

Q: Please report melting point for the following compound: Cc1nn(C)c(Cl)c1CO
Ans: 92 to 94 °C

Q: Please report melting point for the following compound: CCN(CC)c1ccc(S(N)(=O)=O)cc1N
Ans: 102 to 104 °C

Q: Please report melting point for the following compound: CCCC1NC(=O)NC1=O (stereo not drawn)
Ans: 132 to 136 °C

Q: Please report melting point for the following compound: COc1ccc(-c2csc(N)n2)cc1C
Ans: 179 to 181 °C

Q: Please report melting point for the following compound: Nc1cc2c(cc1N)OCCCO2
Ans: 122 to 124 °C

Q: Please report melting point for the following compound: CCc1cc(NN)nc(-c2ccccn2)n1
Ans: 110 to 112 °C

Q: Please report melting point for the following compound: O=C(O)C1CCN(c2ccc(Cl)cc2)C1=O (stereo not drawn)
Ans: 158 to 160 °C

Q: Please report melting point for the following compound: CC(=O)c1ccc(S(=O)(=O)NC(CC(N)=O)C(=O)O)cc1 (stereo not drawn)
Ans: 180 to 182 °C

Q: Please report melting point for the following compound: CC1(c2ccc(Br)cc2)CC(=O)OC1=O (stereo not drawn)
Ans: 69 to 71 °C

Q: Please report melting point for the following compound: Cc1c(N)cnn1CCC(C)C
Ans: 46 to 48 °C

Q: Please report melting point for the following compound: CCOC(=O)CSc1nnc(-c2ccco2)o1
Ans: 59 to 61 °C

Q: Please report melting point for the following compound: O=C(O)CCNc1ncc(C(F)(F)F)cc1Cl
Ans: 131 to 133 °C

Q: Please report melting point for the following compound: CC(CC(N)=NO)N(C)C(=O)OC(C)(C)C (stereo not drawn)
Ans: 102 to 104 °C

Q: Please report melting point for the following compound: C=CCN1C(=O)C(=O)N(CC(=O)O)C1=O
Ans: 143 to 145 °C
